// provenance: patent US11453647B2

molecular target: human A3 receptor (Homo sapiens, UniProt P0DMS8); test: functional cAMP (HTRF) assay, recombinant CHO cells expressing human A3 receptor, forskolin, agonist IB-MECA
Sequence (P0DMS8 whole entry): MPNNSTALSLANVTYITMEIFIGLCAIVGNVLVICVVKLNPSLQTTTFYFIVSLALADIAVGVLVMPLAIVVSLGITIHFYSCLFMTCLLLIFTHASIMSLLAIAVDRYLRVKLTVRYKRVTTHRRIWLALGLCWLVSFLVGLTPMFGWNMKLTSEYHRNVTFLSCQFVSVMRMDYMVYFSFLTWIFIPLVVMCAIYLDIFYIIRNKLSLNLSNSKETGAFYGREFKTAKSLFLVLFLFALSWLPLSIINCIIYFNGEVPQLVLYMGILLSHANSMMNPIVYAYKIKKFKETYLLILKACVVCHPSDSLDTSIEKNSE
Endpoint: IC50

given_smiles=COc1ccc(-c2cnn(C)c2)c2nc(NC(=O)c3ccc(CN4CCCC4=O)cc3)[nH]c12 experimental_system="human A3 receptor (Homo sapiens, UniProt P0DMS8)" endpoint=IC50 obs_value="> 1000 nM"
given_smiles=COCCn1cc(C(=O)Nc2nc3c(-c4cccc5[nH]ncc45)ccc(OC)c3[nH]2)cn1 experimental_system="human A3 receptor (Homo sapiens, UniProt P0DMS8)" endpoint=IC50 obs_value="< 1000 nM"
given_smiles=C#CCC1(O)CCN(C(=O)Nc2nc3c(C4CCOCC4)ccc(OC)c3[nH]2)CC1 experimental_system="human A3 receptor (Homo sapiens, UniProt P0DMS8)" endpoint=IC50 obs_value="> 1000 nM"
given_smiles=COc1ccc(C2CCOCC2)c2nc(NC(=O)C3(C#N)CC3)[nH]c12 experimental_system="human A3 receptor (Homo sapiens, UniProt P0DMS8)" endpoint=IC50 obs_value="> 1000 nM"
given_smiles=COc1ccc(-c2ccccc2)c2nc(NC(=O)c3ccc(N4CCOCC4)nc3)[nH]c12 experimental_system="human A3 receptor (Homo sapiens, UniProt P0DMS8)" endpoint=IC50 obs_value="< 1000 nM"
given_smiles=COCCn1cc(C(=O)Nc2nc3c(-c4cccc5cc[nH]c45)ccc(OC)c3[nH]2)cn1 experimental_system="human A3 receptor (Homo sapiens, UniProt P0DMS8)" endpoint=IC50 obs_value="< 1000 nM"
given_smiles=COc1ccc(-c2cnn(C)c2)c2nc(NC(=O)c3ccon3)[nH]c12 experimental_system="human A3 receptor (Homo sapiens, UniProt P0DMS8)" endpoint=IC50 obs_value="< 1000 nM"
given_smiles=COc1ccc(-c2ccc(F)cc2)c2nc(NC(=O)c3ccc(C(=O)N(C)C)cc3)[nH]c12 experimental_system="human A3 receptor (Homo sapiens, UniProt P0DMS8)" endpoint=IC50 obs_value="< 1000 nM"
given_smiles=COc1ccc(-c2ccc(F)cc2)c2nc(NC(=O)N3CCC(C)(O)CC3)[nH]c12 experimental_system="human A3 receptor (Homo sapiens, UniProt P0DMS8)" endpoint=IC50 obs_value="> 1000 nM"
given_smiles=COc1ccc(-c2cccnc2)c2nc(NC(=O)c3ccc(C(=O)N(C)C)cc3)[nH]c12 experimental_system="human A3 receptor (Homo sapiens, UniProt P0DMS8)" endpoint=IC50 obs_value="> 1000 nM"
given_smiles=COc1ccc(-c2cnn(Cc3cccnc3)c2)c2[nH]c(NC(=O)N3CCC(C)(O)CC3)nc12 experimental_system="human A3 receptor (Homo sapiens, UniProt P0DMS8)" endpoint=IC50 obs_value="< 1000 nM"
given_smiles=COc1cc(F)c(C2=CCOCC2)c2nc(NC(=O)c3ccc(C(=O)N(C)C)cc3)[nH]c12 experimental_system="human A3 receptor (Homo sapiens, UniProt P0DMS8)" endpoint=IC50 obs_value="< 1000 nM"
given_smiles=COc1ccc(-c2ccccc2)c2nc(NC(=O)c3ccnc(N4CCOCC4)c3)[nH]c12 experimental_system="human A3 receptor (Homo sapiens, UniProt P0DMS8)" endpoint=IC50 obs_value="< 100 nM"
given_smiles=COc1ccc(-c2cnn(C)c2)c2nc(NC(=O)c3ccc4occc4c3)[nH]c12 experimental_system="human A3 receptor (Homo sapiens, UniProt P0DMS8)" endpoint=IC50 obs_value="< 1000 nM"
given_smiles=COc1ccc(C2CCOCC2)c2nc(NC(=O)c3ccnc(N4CC[C@@]5(CCOC5)C4)c3)[nH]c12 experimental_system="human A3 receptor (Homo sapiens, UniProt P0DMS8)" endpoint=IC50 obs_value="> 1000 nM"
given_smiles=COc1ccc(-c2cccnc2)c2[nH]c(NC(=O)c3c[nH]cn3)nc12 experimental_system="human A3 receptor (Homo sapiens, UniProt P0DMS8)" endpoint=IC50 obs_value="> 1000 nM"
given_smiles=C#CCC1(O)CCN(C(=O)Nc2nc3c(-c4cnn(C)c4)ccc(OC)c3[nH]2)CC1 experimental_system="human A3 receptor (Homo sapiens, UniProt P0DMS8)" endpoint=IC50 obs_value="> 1000 nM"
given_smiles=COc1ccc(-c2ccc(F)cc2)c2nc(NC(=O)c3ccc(N4C(=O)CCC4=O)cc3)[nH]c12 experimental_system="human A3 receptor (Homo sapiens, UniProt P0DMS8)" endpoint=IC50 obs_value="< 1000 nM"
